- Test system: Salmonella enterica subsp. enterica typhimurium
- assay method text: MIC, 20-strain panel
- Format: cell-based
- test conditions: F: Salmonella enterica subsp. enterica Typhimurium
compounds and their reported MIC
Report only the number, with the unit µg/mL understood.

N#Cc1ccc(Cl)c(S(=O)(=O)N[C@@H]2CCN(Cc3ccc(OC4CC4)cc3)C2)c1 1

Would you kindly look at the next entry?
Entry `N#Cc1cccc(S(=O)(=O)N[C@@H]2CCN(Cc3ccc(OC4CCC4)cc3)C2)c1` under Salmonella enterica subsp. enterica typhimurium had MIC of 8

----------
- Tested on: E. coli JW5503 (deltolC)
- assay method text: MIC, 20-strain panel
- Assay type: cell-based
- test conditions: Escherichia coli, E. coli JW5503 (deltolC); Table 7, separate set of experiments
measured quantity: MIC (µg/mL)
Report only the number, with the unit µg/mL understood.

molecule	target under test	experimental value
Cc1ccc(C#N)cc1S(=O)(=O)N[C@@H]1CCN(Cc2ccc(OC3CC3)cc2)C1	E. coli JW5503 (deltolC)	0.125
N#Cc1ccc(Cl)c(S(=O)(=O)N[C@@H]2CCN(Cc3ccc(OC4CC4)cc3)C2)c1	E. coli JW5503 (deltolC)	0.125
O=S(=O)(N[C@@H]1CCN(Cc2ccc(OC3CC3)cc2)C1)c1cccc(C(F)(F)F)c1	E. coli JW5503 (deltolC)	0.125

Would you kindly look at the next entry?
MIC reading for N#Cc1cccc(S(=O)(=O)N[C@@H]2CCN(Cc3ccc(-c4ccccc4)cc3)C2)c1 [Gyramide C2, gyramide C2] : 0.015

Values were extracted from patent US10253039B2.
